Molecular target: CatSper channel (CatSper1) (Mus musculus, UniProt A2ARP9+Q80W99+Q8BVN3+Q91ZR5)
Construct: native channel in mouse sperm; with CatSper2, CatSper3, CatSper4
Sequence (Q91ZR5 whole entry): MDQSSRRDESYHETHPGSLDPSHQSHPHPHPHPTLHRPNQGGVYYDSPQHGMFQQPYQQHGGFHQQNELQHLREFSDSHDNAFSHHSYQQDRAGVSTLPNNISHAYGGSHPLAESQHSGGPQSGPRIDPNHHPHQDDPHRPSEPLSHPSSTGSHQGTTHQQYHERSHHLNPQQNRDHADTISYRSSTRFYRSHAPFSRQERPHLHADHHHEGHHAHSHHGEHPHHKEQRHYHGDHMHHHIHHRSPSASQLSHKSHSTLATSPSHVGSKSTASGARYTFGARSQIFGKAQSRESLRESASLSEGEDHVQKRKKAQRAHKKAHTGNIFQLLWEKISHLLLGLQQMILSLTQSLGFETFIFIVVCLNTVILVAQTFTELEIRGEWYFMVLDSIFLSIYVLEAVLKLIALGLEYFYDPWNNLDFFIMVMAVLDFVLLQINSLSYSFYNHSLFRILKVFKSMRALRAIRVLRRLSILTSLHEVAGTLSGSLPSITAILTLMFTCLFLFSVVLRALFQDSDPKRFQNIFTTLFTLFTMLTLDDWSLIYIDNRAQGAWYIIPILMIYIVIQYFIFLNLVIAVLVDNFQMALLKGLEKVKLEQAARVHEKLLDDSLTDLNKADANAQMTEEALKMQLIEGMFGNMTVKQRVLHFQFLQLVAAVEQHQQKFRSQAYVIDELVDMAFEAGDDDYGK
Sequence (A2ARP9 whole entry): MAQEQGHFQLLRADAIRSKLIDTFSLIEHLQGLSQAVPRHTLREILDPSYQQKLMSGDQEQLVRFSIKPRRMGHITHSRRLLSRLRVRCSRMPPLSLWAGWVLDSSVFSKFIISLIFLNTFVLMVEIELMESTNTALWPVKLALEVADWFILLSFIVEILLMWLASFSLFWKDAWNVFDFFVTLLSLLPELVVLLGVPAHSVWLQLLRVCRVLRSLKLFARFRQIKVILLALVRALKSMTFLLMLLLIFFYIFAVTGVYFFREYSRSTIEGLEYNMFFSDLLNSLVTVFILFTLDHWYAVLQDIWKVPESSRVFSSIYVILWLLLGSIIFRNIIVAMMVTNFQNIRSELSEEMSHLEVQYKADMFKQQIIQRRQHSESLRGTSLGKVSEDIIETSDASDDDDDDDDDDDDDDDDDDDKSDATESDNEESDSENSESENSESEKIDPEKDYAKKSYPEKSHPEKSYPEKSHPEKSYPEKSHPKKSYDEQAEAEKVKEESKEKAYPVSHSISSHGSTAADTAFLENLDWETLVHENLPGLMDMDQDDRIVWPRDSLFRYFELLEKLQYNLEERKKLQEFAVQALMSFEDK
Sequence (Q80W99 whole entry): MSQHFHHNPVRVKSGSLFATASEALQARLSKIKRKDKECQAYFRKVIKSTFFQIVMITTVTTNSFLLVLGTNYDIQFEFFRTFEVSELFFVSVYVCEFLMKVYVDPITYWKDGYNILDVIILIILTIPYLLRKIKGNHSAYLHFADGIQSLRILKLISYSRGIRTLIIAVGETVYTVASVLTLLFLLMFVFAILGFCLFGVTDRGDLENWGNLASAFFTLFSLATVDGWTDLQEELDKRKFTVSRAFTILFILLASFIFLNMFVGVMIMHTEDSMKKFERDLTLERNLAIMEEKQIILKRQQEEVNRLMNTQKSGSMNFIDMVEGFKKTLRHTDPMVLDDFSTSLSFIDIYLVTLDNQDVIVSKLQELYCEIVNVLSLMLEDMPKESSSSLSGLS
Sequence (Q8BVN3 whole entry): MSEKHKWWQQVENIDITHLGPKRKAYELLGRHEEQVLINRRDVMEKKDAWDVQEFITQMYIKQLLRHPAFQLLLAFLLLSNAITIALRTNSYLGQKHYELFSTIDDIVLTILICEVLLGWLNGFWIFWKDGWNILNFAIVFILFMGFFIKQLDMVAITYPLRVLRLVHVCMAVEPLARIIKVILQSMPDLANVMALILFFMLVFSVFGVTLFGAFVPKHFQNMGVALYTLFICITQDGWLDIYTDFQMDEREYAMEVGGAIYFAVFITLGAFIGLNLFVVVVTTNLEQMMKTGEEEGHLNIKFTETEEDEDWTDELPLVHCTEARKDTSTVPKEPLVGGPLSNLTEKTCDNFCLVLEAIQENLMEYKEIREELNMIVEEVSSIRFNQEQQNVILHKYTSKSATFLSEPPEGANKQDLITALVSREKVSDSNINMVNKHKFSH
Assay: whole-sperm patch clamp of native CatSper currents; also SBFI and fura-2 photometry (abstract IC50 […] by optical assay)
pIC50: −log10 of the molar value.

| Compound | pIC50 |
| --- | --- |
| O=C(c1cccs1)c1no[n+]([O-])c1C(=O)c1cccs1 [HC-056456] | ~4.82 |
